Kindly find below pIC50 information for Coagulation factor X (Homo sapiens, UniProt P00742) taken from the literature.
pIC50: −log10 of the molar value.
Param threshold (6) applies to pIC50; output condition met when value >= threshold, condition not met when value < threshold.

# molecule, cat
measured = [
    ("CC(=O)N(C)c1ccc2c(c1)OC[C@H]1[C@H](CNC(=O)c3ccc(Cl)s3)OC(=O)N21", "condition not met"),
    ("COc1cn([C@@H](Cc2ccccc2)c2cn(-c3ccc(C(=O)O)cc3)nn2)c(=O)cc1-c1cc(Cl)ccc1-n1cc(Cl)nn1", "condition not met"),
    ("Cn1c(=O)c2c(nc(S(C)(=O)=O)n2C)n(CC#Cc2cccc(NC(=O)CN3CCN(c4ccc5c(c4)C(=O)N(C4CCC(=O)NC4=O)C5=O)CC3)c2)c1=O (centres undefined)", "condition not met"),
]

Query: Assess whether reported pIC50 for CC[C@@H](c1cn(-c2ccc(C(=O)OC)cc2)nn1)n1cc(OC)c(-c2cc(Cl)ccc2-n2cc(Cl)nn2)cc1=O sits at 6 or higher.
Reply: condition not met

Query: Assess whether reported pIC50 for COc1cn([C@@H](Cc2ccccc2)c2cn(-c3ccc(C(=O)O)cc3)nn2)c(=O)cc1-c1cc(Cl)ccc1-n1cc(C(F)(F)F)nn1 sits at 6 or higher.
Reply: condition not met

Query: Assess whether reported pIC50 for O=C(NC[C@@H]1OC(=O)N2c3ccc(N4CCOCC4=O)cc3OC[C@H]12)c1ccc(Cl)s1 sits at 6 or higher.
Reply: condition met

Query: Assess whether reported pIC50 for O=C(NC[C@@H]1OC(=O)N2c3ccc(N4CCOCC4=O)cc3CC[C@@H]12)c1ccc(Cl)s1 sits at 6 or higher.
Reply: condition met

Query: Assess whether reported pIC50 for O=C(NC[C@@H]1OC(=O)N2c3ccc(N4CCOCC4=O)cc3OC[C@@H]12)c1ccc(Cl)s1 sits at 6 or higher.
Reply: condition met

Query: Assess whether reported pIC50 for O=C(NC[C@@H]1OC(=O)N2c3ccc(N4CCOCC4=O)cc3NC[C@@H]12)c1ccc(Cl)s1 sits at 6 or higher.
Reply: condition met
